Each recorded value in this set is attributed to the kinase profiling compilation of Christmann-Franck et al. (2016).

Biological target: IRAK4 (human) (UniProt Q9NWZ3)
Sequence (Q9NWZ3 whole entry, looked up): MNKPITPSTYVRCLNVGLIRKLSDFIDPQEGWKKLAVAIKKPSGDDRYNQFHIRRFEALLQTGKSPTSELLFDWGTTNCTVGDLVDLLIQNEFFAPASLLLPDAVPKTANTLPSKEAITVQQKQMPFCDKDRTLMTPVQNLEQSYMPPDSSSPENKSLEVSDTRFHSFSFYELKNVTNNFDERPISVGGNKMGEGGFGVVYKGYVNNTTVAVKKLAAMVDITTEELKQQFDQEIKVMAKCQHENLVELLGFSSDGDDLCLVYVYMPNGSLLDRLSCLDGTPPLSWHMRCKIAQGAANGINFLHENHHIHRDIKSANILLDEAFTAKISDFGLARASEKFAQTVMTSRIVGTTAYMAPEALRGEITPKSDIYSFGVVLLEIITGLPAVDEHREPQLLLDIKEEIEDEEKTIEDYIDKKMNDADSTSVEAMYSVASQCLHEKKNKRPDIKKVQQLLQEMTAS
Test: radiometric filter-binding kinase assay, Kinase HotSpot
Conditions: compound 0.5 µM; ATP 10 µM
measurement-label: residual activity (%)

In [3]: df
Out[3]:
                                      smiles  observed_value
 0  N#Cc1c[nH]c2c[nH]/c(=N\Cc3cccnc3)cc2/c1=N\c1ccc(F)c(Cl)c1             100
 1  Cn1c2ccccc2c2c3c(c4c5ccccc5n(CCC#N)c4c21)CNC3=O            63.5
 2  O=C1C(Cl)=C(N2C(=O)CCC2=O)C(=O)c2ccccc21            89.1
 3  COc1ccc(C(=O)Nc2sc3c(c2C(N)=O)CCCC3)cc1OC            94.8
 4       CCCCc1c(-c2ccc(OC)cc2)[nH]c2nccnc12             163
 5  CS(=O)(=O)CCNCc1ccc(-c2ccc3ncnc(Nc4ccc(OCc5cccc(F)c5)c(Cl)c4)c3c2)o1            91.5
 6  O=C(c1cc2cc(O)ccc2[nH]1)c1cc2cc(O)ccc2[nH]1            85.9
 7     COc1ccc2c(c1)/C(=C/c1cnc[nH]1)C(O)=N2            92.2
 8        CC(C)(C)c1cc(C=C(C#N)C#N)cc(Br)c1O             182
 9  CN(C)CCCn1cc(C2=C(c3c[nH]c4ccccc34)C(=O)NC2=O)c2ccccc21             135
10      CN(C)c1ccc(/C=C2\C(=O)Nc3ccccc32)cc1             104

* * *

Molecular target: EGFR (human) (UniProt P00533)
Sequence (P00533 whole entry, looked up): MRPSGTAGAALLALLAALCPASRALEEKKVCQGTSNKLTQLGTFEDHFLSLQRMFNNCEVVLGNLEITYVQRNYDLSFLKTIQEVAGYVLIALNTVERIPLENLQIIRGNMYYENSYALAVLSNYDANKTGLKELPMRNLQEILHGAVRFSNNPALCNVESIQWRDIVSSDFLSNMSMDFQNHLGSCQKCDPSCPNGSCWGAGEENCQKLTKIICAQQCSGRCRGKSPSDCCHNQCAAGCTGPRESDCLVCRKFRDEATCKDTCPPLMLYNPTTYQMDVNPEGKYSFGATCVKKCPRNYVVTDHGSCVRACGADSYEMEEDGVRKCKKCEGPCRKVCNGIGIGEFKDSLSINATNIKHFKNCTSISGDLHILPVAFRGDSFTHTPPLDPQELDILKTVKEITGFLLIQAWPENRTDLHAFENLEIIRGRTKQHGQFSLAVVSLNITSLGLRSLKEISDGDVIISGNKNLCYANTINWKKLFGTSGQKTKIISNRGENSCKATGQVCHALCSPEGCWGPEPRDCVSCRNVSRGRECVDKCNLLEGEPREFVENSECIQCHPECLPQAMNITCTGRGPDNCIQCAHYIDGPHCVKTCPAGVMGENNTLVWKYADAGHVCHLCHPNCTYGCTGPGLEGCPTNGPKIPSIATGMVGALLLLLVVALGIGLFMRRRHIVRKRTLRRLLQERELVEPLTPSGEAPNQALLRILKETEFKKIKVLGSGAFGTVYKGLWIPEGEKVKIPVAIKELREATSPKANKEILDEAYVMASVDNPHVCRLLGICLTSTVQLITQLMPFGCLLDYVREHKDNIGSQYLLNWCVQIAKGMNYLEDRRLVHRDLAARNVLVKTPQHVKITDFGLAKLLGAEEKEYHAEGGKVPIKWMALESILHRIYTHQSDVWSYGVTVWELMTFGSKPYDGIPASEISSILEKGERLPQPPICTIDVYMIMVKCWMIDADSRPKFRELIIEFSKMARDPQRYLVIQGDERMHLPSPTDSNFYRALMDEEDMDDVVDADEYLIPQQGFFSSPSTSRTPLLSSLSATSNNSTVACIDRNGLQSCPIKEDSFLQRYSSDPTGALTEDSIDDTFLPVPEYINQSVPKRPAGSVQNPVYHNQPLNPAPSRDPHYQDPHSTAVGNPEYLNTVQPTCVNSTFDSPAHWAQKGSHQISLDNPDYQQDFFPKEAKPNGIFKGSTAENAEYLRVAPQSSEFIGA
Assay: radiometric filter-binding kinase assay, Kinase HotSpot
Conditions: compound 0.5 µM; ATP 10 µM
Parameter: residual activity. Scope: all listed entries.
measurement-label: residual activity (%)

In [3]: df
Out[3]:
                                     smiles                subject_of_test  endpoint_unit  observed_value
0       Fc1ccc(-c2nc3n(c2-c2ccncc2)CCS3)cc1  EGFR (human) (UniProt P00533)              %            90.7
1     COc1ccc2c(c1)/C(=C/c1cnc[nH]1)C(O)=N2  EGFR (human) (UniProt P00533)              %            99.4
2  NC(=O)c1cccc(-c2cc(Nc3ccc(OC(F)(F)F)cc3)ncn2)c1  EGFR (human) (UniProt P00533)              %            96.6

* * *

System: PRKCQ (human), Q04759 [P330L]
Sequence (Q04759 whole entry P330L, looked up): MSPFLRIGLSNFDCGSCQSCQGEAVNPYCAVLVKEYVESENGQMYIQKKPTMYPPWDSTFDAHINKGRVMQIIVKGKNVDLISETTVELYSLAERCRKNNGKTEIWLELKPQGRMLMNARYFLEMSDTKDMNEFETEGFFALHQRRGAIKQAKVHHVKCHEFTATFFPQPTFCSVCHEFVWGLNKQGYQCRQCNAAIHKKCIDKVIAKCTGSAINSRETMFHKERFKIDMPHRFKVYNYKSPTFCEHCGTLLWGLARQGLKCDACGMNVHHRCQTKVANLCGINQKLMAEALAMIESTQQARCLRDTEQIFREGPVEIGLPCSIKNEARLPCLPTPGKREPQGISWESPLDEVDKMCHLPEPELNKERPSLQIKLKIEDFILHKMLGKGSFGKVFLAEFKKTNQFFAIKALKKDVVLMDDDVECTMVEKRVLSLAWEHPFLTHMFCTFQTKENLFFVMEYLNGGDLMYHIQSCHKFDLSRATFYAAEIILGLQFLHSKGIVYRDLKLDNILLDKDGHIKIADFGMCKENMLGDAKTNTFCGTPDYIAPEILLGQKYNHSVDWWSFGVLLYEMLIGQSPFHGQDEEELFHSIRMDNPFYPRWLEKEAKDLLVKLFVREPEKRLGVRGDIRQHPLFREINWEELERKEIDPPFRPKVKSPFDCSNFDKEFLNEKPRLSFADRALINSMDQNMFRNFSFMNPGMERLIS
Assay: radiometric filter-binding kinase assay, Kinase HotSpot
Settings: compound 0.5 µM; ATP 10 µM
Parameter: residual activity. Scope: all listed entries.
measurement-label: residual activity (%)

In [3]: df
Out[3]:
                                      smiles  measurement_label  observed_value
 0  O=C1NC(=O)/C(=C/c2ccc3c(c2)OC(F)(F)O3)S1  residual activity             101
 1  Oc1ccc(-c2nc(-c3ccc(F)cc3)c(-c3ccncc3)[nH]2)cc1  residual activity             115
 2       Cn1cnc2cc3c(Nc4cccc(Br)c4)ncnc3cc21  residual activity            96.9
 3     O=c1cc(N2CCOCC2)oc2c(-c3ccccc3)cccc12  residual activity             112
 4        Oc1ccc(Nc2nc(-c3ccc(Cl)cc3)cs2)cc1  residual activity             123
 5      COc1ccc(-c2cnc3c(-c4ccsc4)cnn3c2)cc1  residual activity            98.7
 6  CC(=O)O/N=C1\C(=C2\C(=O)Nc3cc(Br)ccc32)Nc2ccccc21  residual activity              72
 7      c1ccc(-c2n[nH]cc2-c2ccnc3ccccc23)nc1  residual activity             115
 8  CC[C@@H](CO)Nc1nc(NCc2ccccc2)c2ncn(C(C)C)c2n1  residual activity              90
 9          c1ccc(-c2n[nH]c3c2oc2ccccc23)cc1  residual activity            83.8
10  Cn1c2ccccc2c2c3c(c4c5ccccc5n(CCC#N)c4c21)CNC3=O  residual activity            76.3
